Target: UniProtKB P29452
Sequence (whole entry): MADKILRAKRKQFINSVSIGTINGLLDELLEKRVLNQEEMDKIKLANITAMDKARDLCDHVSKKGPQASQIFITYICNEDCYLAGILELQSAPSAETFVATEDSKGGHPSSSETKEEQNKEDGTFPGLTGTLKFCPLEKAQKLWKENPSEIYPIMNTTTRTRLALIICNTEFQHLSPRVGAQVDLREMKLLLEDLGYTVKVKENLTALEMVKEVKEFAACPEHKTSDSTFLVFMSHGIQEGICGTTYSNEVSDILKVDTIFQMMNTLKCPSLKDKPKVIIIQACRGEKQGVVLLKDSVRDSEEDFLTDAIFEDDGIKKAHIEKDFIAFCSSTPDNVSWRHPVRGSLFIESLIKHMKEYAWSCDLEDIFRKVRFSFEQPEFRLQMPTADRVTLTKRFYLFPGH
Assay: Inhibitory activity against murine Caspase-1
I'd appreciate it if you could supply k3/Ki values for the items below.
Answer with a number only, understood to be in M⁻¹ s⁻¹.

Query block: Record request: k3/Ki value, item `C[C@H](NC(=O)C(=O)Nc1ccc2c(c1)CCC2)C(=O)N[C@@H](CC(=O)O)C(=O)COc1c(F)c(F)cc(F)c1F`
Result block: 270000

Query block: Another compound to check: `C[C@H](NC(=O)C(=O)Nc1ccccc1-c1ccc[nH]1)C(=O)N[C@@H](CC(=O)O)C(=O)COc1c(F)c(F)cc(F)c1F`
Result block: 1.52e+06

Query block: Another compound to check: `C[C@H](NC(=O)C(=O)Nc1ccccc1F)C(=O)N[C@@H](CC(=O)O)C(=O)COc1c(F)c(F)cc(F)c1F`
Result block: 1.14e+06

Query block: Another compound to check: O=C(O)CC(NC(=O)[C@@H]1Cc2cccc3c2N1C(=O)[C@@H](NC(=O)OCc1ccccc1)CC3)C(=O)CF (some centres undefined)
Result block: 1.2e+07

----------
target: Caspase-6 (Homo sapiens); experiment: Inhibitory activity against Caspase-6
Note that class boundaries on k3/Ki are L (below 20000 M⁻¹ s⁻¹), M (20000 M⁻¹ s⁻¹ to below 40000 M⁻¹ s⁻¹), H (40000 M⁻¹ s⁻¹ or more)

Query block: Category of `C[C@H](NC(=O)C(=O)Nc1ccccn1)C(=O)N[C@@H](CC(=O)O)C(=O)COc1c(F)c(F)cc(F)c1F` :
Result block: M

Query block: Another compound to check: `C[C@H](NC(=O)C(=O)Nc1cc(C(C)(C)C)ccc1C(C)(C)C)C(=O)N[C@@H](CC(=O)O)C(=O)COc1c(F)c(F)cc(F)c1F`
Result block: L

Query block: Another compound to check: `C[C@H](NC(=O)C(=O)Nc1ccccc1C(C)(C)C)C(=O)N[C@@H](CC(=O)O)C(=O)COP(=O)(c1ccccc1)c1ccccc1`
Result block: H

Query block: Another compound to check: `C[C@H](NC(=O)C(=O)Nc1ccccc1-c1ccccc1)C(=O)N[C@@H](CC(=O)O)C(=O)COP(=O)(c1ccccc1)c1ccccc1`
Result block: M

Query block: Another compound to check: `C[C@H](NC(=O)C(=O)Nc1ccccc1Oc1ccccc1)C(=O)N[C@@H](CC(=O)O)C(=O)COc1c(F)c(F)cc(F)c1F`
Result block: L

Query block: Another compound to check: `C[C@H](NC(=O)C(=O)Nc1cccc2ccccc12)C(=O)N[C@@H](CC(=O)O)C(=O)COc1c(F)c(F)cc(F)c1F`
Result block: L

Query block: Another compound to check: Cc1c(C(=O)N[C@H](C(=O)NC(CC(=O)O)C(=O)CF)C(C)C)n(C)c2ccccc12 (stereo partly specified)
Result block: H

Query block: Another compound to check: `C[C@H](NC(=O)C(=O)Nc1ccccc1Cl)C(=O)N[C@@H](CC(=O)O)C(=O)COP(=O)(c1ccccc1)c1ccccc1`
Result block: M

Query block: Another compound to check: `C[C@H](NC(=O)C(=O)Nc1ccccc1C(F)(F)F)C(=O)N[C@@H](CC(=O)O)C(=O)COc1c(F)c(F)cc(F)c1F`
Result block: H

Query block: Another compound to check: `C[C@H](NC(=O)C(=O)Nc1ccccc1Cl)C(=O)N[C@@H](CC(=O)O)C(=O)COC(=O)c1c(Cl)cccc1Cl`
Result block: H

Query block: Another compound to check: `C[C@H](NC(=O)C(=O)NC1CCCCC1)C(=O)N[C@@H](CC(=O)O)C(=O)COc1c(F)c(F)cc(F)c1F`
Result block: L

These measurements were taken from ChEMBL document CHEMBL1141033.
